Provenance of the data: ChEMBL document CHEMBL1149088

target: Substance-P receptor (Homo sapiens); test: Binding affinity against human Tachykinin receptor 1 expressed in astrocytoma UC11MG cells using [125I]- SP radioligand; format: cell-based
Sequence (P25103 whole entry): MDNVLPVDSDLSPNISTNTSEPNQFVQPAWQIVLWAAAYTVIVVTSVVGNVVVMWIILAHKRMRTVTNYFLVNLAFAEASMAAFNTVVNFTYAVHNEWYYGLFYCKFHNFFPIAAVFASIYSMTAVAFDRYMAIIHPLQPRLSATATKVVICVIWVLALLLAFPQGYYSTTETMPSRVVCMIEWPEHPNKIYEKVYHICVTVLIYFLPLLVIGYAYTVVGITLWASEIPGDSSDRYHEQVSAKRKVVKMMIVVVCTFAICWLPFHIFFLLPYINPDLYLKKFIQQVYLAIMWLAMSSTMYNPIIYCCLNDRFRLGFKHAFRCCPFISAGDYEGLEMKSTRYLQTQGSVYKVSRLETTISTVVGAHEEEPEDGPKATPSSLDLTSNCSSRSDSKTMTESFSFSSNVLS
Entries and their pIC50
# pIC50 is unitless: minus log10 of the molar concentration; print number only

CN(Cc1ccccc1)Cc1nc2ccccc2c(-c2ccccc2)c1C(=O)NCc1cc(C(F)(F)F)cc(C(F)(F)F)c1
6.74

Now for the molecule whose pIC50 we want.
QUERY: Consider the molecule "CC(C)(C)[Si](C)(C)OCc1nc2ccccc2c(-c2ccccc2)c1C(=O)NCc1cc(C(F)(F)F)cc(C(F)(F)F)c1" and give its measured pIC50.
RESULT: 7.77
